- measured-on: T1, human PD-1 extracellular domain fused with human Fc tag (hPD-1-hFc) (human)
- T1 construct: also called human PD-1-hFc
- test-method-notes: ELISA on coated PD1-hFc
EC50 values, listed per item
Dear colleague, please return just the value in µg/mL, with no unit written.

EC50 in this record for 15H5 murine anti-PD-1 antibody (antibody, V domains shown, Purified hybridoma antibody; also called 15H5-mIgG1) VH: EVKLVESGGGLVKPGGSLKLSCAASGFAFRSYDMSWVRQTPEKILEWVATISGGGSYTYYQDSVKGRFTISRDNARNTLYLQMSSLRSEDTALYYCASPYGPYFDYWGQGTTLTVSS VL: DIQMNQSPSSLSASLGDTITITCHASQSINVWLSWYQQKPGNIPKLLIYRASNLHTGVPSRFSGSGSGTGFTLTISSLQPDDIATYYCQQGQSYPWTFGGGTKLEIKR : 0.0134

EC50 measured on 13F1 murine anti-PD-1 antibody (antibody, V domains shown, Purified hybridoma antibody; also called 13F1-mIgG1) VH: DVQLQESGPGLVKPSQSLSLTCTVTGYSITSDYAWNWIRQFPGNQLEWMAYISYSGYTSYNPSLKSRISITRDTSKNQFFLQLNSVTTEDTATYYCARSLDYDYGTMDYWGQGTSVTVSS VL: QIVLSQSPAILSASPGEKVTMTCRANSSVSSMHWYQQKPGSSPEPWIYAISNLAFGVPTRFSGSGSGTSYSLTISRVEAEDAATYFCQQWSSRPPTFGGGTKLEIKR = 0.0173

Lookup result for 22A5 murine anti-PD-1 antibody (antibody, V domains shown, Purified hybridoma antibody; also called 22A5-mIgG1) VH: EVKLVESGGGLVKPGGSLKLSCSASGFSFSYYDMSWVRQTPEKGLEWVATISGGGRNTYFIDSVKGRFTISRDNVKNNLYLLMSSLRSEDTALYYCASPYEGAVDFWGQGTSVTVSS VL: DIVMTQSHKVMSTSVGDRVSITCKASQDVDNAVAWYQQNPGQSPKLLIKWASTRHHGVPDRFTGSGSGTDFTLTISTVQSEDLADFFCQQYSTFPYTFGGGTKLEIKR ; measured EC50: 0.0194

For 7A4 murine anti-PD-1 antibody (antibody, V domains shown, Purified hybridoma antibody; also called 7A4-mIgG1) VH: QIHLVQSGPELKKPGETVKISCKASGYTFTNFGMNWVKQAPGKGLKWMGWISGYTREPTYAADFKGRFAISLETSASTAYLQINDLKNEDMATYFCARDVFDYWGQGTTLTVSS VL: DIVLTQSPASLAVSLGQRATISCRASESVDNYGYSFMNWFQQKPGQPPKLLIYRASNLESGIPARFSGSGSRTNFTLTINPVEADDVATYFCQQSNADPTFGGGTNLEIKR the binder record lists EC50 as 0.00932

Please fill in: EC50 reported for 7D3 murine anti-PD-1 antibody (antibody, V domains shown, Purified hybridoma antibody; also called 7D3-mIgG1) VH: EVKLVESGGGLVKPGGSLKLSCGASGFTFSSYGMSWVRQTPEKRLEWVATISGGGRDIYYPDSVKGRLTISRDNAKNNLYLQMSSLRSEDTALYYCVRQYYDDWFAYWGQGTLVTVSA VL: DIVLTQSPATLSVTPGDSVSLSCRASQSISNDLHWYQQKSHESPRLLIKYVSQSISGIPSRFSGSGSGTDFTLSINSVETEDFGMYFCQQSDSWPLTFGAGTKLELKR = 0.0244

// EC50 lookup, binder = 14A6 murine anti-PD-1 antibody (antibody, V domains shown, Purified hybridoma antibody; also called 14A6-mIgG1) VH: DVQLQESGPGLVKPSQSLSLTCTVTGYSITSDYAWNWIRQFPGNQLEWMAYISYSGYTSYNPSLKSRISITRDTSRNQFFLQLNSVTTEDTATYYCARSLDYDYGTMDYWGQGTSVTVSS VL: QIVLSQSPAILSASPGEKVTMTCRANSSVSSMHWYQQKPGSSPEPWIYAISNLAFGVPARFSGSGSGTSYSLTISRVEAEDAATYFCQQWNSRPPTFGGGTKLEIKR , result: 0.00707

Looking up 4C10 murine anti-PD-1 antibody (antibody, V domains shown, Purified hybridoma antibody; also called 4C10-mIgG1) VH: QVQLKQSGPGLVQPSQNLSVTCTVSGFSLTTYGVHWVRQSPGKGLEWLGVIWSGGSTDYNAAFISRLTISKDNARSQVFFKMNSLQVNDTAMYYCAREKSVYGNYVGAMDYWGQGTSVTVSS VL: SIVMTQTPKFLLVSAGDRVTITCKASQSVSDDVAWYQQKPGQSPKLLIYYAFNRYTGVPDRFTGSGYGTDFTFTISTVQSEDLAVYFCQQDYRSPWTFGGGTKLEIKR , I found its EC50 recorded as 0.0132

Provenance of the data: patent US20170267762A1
